- System: Serine/threonine-protein kinase pim-1 (Homo sapiens, UniProt P11309)
- Sequence (P11309 whole entry): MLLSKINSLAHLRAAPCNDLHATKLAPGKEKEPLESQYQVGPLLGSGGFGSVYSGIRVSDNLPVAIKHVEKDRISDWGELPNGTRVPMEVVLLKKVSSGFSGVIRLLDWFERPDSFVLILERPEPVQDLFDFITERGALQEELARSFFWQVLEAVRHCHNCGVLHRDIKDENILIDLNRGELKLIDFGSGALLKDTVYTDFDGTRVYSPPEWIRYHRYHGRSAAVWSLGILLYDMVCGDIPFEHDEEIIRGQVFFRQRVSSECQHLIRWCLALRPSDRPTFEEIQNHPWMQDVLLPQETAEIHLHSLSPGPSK
- Assay name: Inhibition of His tagged human recombinant PIM1 using PIM tide (ARKRRRHPSGPPTA) as substrate incubated for 1 hr by fluorescence based assay
Experimental endpoint: pIC50
Lab note: report pIC50 as minus log10 of the concentration in molar units, number only.

Query string: Could you share what pIC50 was measured for "COCCN1CCOc2c1cnn1c(-c3ccc4cccc(NCC5CCNCC5)c4n3)nnc21" , tested on Serine/threonine-protein kinase pim-1 (Homo sapiens, UniProt P11309)?
Result string: 8.15

Query string: Could you share what pIC50 was measured for "CN1CCOc2c1cnn1c(-c3ccc4cccc(NC(=O)C5CCNCC5)c4n3)nnc21" , tested on Serine/threonine-protein kinase pim-1 (Homo sapiens, UniProt P11309)?
Result string: 7.44

Query string: Could you share what pIC50 was measured for "CN1CCOc2c1cnn1c(-c3ccc4c(F)ccc(NCC5(F)CCNCC5)c4n3)nnc21" , tested on Serine/threonine-protein kinase pim-1 (Homo sapiens, UniProt P11309)?
Result string: 7.52

Query string: Could you share what pIC50 was measured for "c1ccc(OCCN2CCOc3c2cnn2c(-c4ccc5cccc(NCC6CCNCC6)c5n4)nnc32)cc1" , tested on Serine/threonine-protein kinase pim-1 (Homo sapiens, UniProt P11309)?
Result string: 7.77

Query string: Could you share what pIC50 was measured for "CN1CCOc2c1cnn1c(-c3ccc4cccc(NCC5CCNCC5)c4c3)nnc21" , tested on Serine/threonine-protein kinase pim-1 (Homo sapiens, UniProt P11309)?
Result string: 8.22

Query string: Could you share what pIC50 was measured for "CC(C)N1CCOc2c1cnn1c(-c3ccc4cccc(NCC5CCNCC5)c4n3)nnc21" , tested on Serine/threonine-protein kinase pim-1 (Homo sapiens, UniProt P11309)?
Result string: 7.80

Query string: Could you share what pIC50 was measured for "CN1CCOc2c1cnn1c(-c3ccc4ccnc(NCC5CCNCC5)c4c3)nnc21" , tested on Serine/threonine-protein kinase pim-1 (Homo sapiens, UniProt P11309)?
Result string: 8.40

Query string: Could you share what pIC50 was measured for "CN1CCOc2c1cnn1c(-c3ccc4ccc(Cl)c(NCC5(F)CCNCC5)c4n3)nnc21" , tested on Serine/threonine-protein kinase pim-1 (Homo sapiens, UniProt P11309)?
Result string: 7.92

Query string: Could you share what pIC50 was measured for "CN1CCOc2c1cnn1c(-c3ccc4cccc(NCC5CCCCC5)c4n3)nnc21" , tested on Serine/threonine-protein kinase pim-1 (Homo sapiens, UniProt P11309)?
Result string: 6.38

Query string: Could you share what pIC50 was measured for "CN1CCOc2c1cnn1c(-c3ccc4cccc(NC5CCC(C)(C)CC5)c4n3)nnc21" , tested on Serine/threonine-protein kinase pim-1 (Homo sapiens, UniProt P11309)?
Result string: 7.04

Query string: Could you share what pIC50 was measured for "CN1CCOc2c1cnn1c(-c3ccc4cc(F)cc(NCC5(F)CCNCC5)c4n3)nnc21" , tested on Serine/threonine-protein kinase pim-1 (Homo sapiens, UniProt P11309)?
Result string: 8.00

Query string: Could you share what pIC50 was measured for "CN1CCOc2c1cnn1c(-c3ccc4cccc(NCC5CCOCC5)c4n3)nnc21" , tested on Serine/threonine-protein kinase pim-1 (Homo sapiens, UniProt P11309)?
Result string: 7.52

Query string: Could you share what pIC50 was measured for "CCCN1CCOc2c1cnn1c(-c3ccc4cccc(NCC5CCNCC5)c4n3)nnc21" , tested on Serine/threonine-protein kinase pim-1 (Homo sapiens, UniProt P11309)?
Result string: 7.92

Query string: Could you share what pIC50 was measured for "CN1CCOc2c1cnn1c(-c3cccc(C(=O)NCC4CCNCC4)c3)nnc21" , tested on Serine/threonine-protein kinase pim-1 (Homo sapiens, UniProt P11309)?
Result string: 6.06

Query string: Could you share what pIC50 was measured for "Cc1cc(NCC2(F)CCNCC2)c2nc(-c3nnc4c5c(cnn34)N(C)CCO5)ccc2c1" , tested on Serine/threonine-protein kinase pim-1 (Homo sapiens, UniProt P11309)?
Result string: 6.63

Query string: Could you share what pIC50 was measured for "CN1CCC(CNc2cccc3ccc(-c4nnc5c6c(cnn45)N(C)CCO6)nc23)CC1" , tested on Serine/threonine-protein kinase pim-1 (Homo sapiens, UniProt P11309)?
Result string: 7.85

Query string: Could you share what pIC50 was measured for "CN1CCOc2c1cnn1c(-c3ccc4ccnc(NCC5(F)CCNCC5)c4c3)nnc21" , tested on Serine/threonine-protein kinase pim-1 (Homo sapiens, UniProt P11309)?
Result string: 8.15
